Experimental system: T1, human PD-L1 ECD-His (human, UniProt Q9NZQ7 19-238)
T1 construct: extracellular domain; Analyte in all SPR and BLI runs; also called hPD-L1_ECD-His; hPD-L1 ECD-His; not shown: His tag
T1 sequence (Q9NZQ7 19-238): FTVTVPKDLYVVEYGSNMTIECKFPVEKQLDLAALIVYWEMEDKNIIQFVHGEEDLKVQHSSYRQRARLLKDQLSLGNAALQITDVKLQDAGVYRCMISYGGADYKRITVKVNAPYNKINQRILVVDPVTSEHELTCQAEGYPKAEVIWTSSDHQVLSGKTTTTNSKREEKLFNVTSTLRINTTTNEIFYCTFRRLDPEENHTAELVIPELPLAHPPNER
Measurement description: SPR, hPD-L1-His, comparison of IgG isotypes of PL2#3
Readout: koff (s⁻¹)

Binder: PL2 IgG1 (antibody, V domains shown) VH: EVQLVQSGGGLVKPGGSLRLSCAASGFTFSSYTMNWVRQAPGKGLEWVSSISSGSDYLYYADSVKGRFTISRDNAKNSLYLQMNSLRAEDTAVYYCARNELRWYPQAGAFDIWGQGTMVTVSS VL: QSVVTQPPSMSAAPGQNVTISCSGSSSYIESSYVSWYQQLPGTAPRLLIYDDDMRPSGIPDRFSGSKSGTSATLAITGLQTGDEADYYCEIWDSGLGGVFGGGTKLTVL
Recorded value: 0.00193
//
Binder: PL2#3 mtIgG1 (N297A) (antibody, V domains shown, N297A mutant of human IgG1 Fc backbone) VH: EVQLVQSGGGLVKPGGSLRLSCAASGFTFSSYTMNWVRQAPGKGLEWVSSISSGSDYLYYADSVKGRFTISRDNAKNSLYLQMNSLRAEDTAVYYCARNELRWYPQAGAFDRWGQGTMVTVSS VL: QSVVTQPPSMSAAPGQRVTISCSGSSSYIESSYVGWYQQLPGTAPRLLIYDDDMRPSGIPDRFSGSKSGTSATLAITGLQTGDEADYYCEIWRSGLGGVFGGGTKLTVLS
Recorded value: 0.000286
//
Binder: PL2#3 IgG2 (antibody, V domains shown, Human IgG2 backbone) VH: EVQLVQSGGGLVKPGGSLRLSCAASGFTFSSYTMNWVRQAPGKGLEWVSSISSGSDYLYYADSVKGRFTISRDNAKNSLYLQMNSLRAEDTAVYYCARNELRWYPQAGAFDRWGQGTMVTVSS VL: QSVVTQPPSMSAAPGQRVTISCSGSSSYIESSYVGWYQQLPGTAPRLLIYDDDMRPSGIPDRFSGSKSGTSATLAITGLQTGDEADYYCEIWRSGLGGVFGGGTKLTVL
Recorded value: 0.000162
//
Binder: PL2#3 IgG1 (antibody, V domains shown, Human IgG1) VH: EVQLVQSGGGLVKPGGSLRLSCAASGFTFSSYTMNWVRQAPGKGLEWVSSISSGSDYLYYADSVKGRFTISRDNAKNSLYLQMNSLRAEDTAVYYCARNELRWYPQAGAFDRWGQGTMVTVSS VL: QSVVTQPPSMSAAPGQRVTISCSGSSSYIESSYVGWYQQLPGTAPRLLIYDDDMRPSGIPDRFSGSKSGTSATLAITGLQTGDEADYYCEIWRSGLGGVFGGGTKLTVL
Recorded value: 0.000276
